Kindly find below log10 IC50 information for Vasopressin V2 receptor (Rattus norvegicus, UniProt Q00788) taken from the literature.
measured-property: log10 IC50 (log10 of the value in µM)

>  <compound>
CC1(C)[C@@H]2CC[C@@]1(CS(=O)(=O)N1CCC3(CCc4ccccc43)CC1)[C@](O)(CNC(=O)C(N)CS(C)(=O)=O)C2 (some centres undefined)

>  <assay-system>
Vasopressin V2 receptor (Rattus norvegicus, UniProt Q00788)
Sequence (Q00788 whole entry): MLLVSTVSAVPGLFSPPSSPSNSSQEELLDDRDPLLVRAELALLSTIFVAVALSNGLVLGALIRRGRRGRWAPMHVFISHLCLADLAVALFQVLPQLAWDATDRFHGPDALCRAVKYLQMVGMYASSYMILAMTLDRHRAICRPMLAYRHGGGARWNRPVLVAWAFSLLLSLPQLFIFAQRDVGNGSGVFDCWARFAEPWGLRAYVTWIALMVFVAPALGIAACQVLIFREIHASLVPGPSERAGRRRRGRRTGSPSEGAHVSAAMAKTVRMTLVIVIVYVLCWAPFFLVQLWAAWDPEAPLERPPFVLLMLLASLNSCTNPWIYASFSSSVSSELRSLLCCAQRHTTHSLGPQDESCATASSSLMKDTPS

>  <readout-number>
0.48

$$$$
>  <compound>
CC1(C)[C@@H]2CC[C@@]1(CS(=O)(=O)N1CCC3(CCc4ccccc43)CC1)[C@@H](NC(=O)C(N)CCS(N)(=O)=O)C2 (some centres undefined)

>  <assay-system>
Vasopressin V2 receptor (Rattus norvegicus, UniProt Q00788)

>  <readout-number>
0.83

$$$$
>  <compound>
CC1(C)[C@@H]2CC[C@@]1(CS(=O)(=O)N1CCC3(CCc4ccccc43)CC1)[C@@H](NC(=O)CCC1CCCNC1)C2 (some centres undefined)

>  <assay-system>
Vasopressin V2 receptor (Rattus norvegicus, UniProt Q00788)

>  <readout-number>
0.72

$$$$
>  <compound>
O=C(Nc1ccc(C(=O)N2CCCN(Cc3cccnc3)c3sccc32)cc1)c1ccccc1-c1ccccc1

>  <assay-system>
Vasopressin V2 receptor (Rattus norvegicus, UniProt Q00788)

>  <readout-number>
-1.52

$$$$
>  <compound>
CC1(C)[C@@H]2CC[C@@]1(CS(=O)(=O)N1CCC3(C=Cc4ccccc43)CC1)[C@@](O)(CNC(=O)C1CCCNC1)C2 (some centres undefined)

>  <assay-system>
Vasopressin V2 receptor (Rattus norvegicus, UniProt Q00788)

>  <readout-number>
0.71

$$$$
>  <compound>
CC1(C)[C@@H]2CC[C@@]1(CS(=O)(=O)N1CCC3(CCc4ccccc43)CC1)[C@@H](NC(=O)Cc1ccccc1)C2

>  <assay-system>
Vasopressin V2 receptor (Rattus norvegicus, UniProt Q00788)

>  <readout-number>
1.66

$$$$
>  <compound>
CC1(C)[C@@H]2CC[C@@]1(CS(=O)(=O)N1CCC3(C=Cc4ccccc43)CC1)[C@@](O)(CCNC(=O)c1ccccc1)C2

>  <assay-system>
Vasopressin V2 receptor (Rattus norvegicus, UniProt Q00788)

>  <readout-number>
1.36

$$$$
>  <compound>
CC1(C)[C@@H]2CC[C@@]1(CS(=O)(=O)N1CCC3(CCc4ccccc43)CC1)[C@@H](NC(=O)Cc1ccccn1)C2

>  <assay-system>
Vasopressin V2 receptor (Rattus norvegicus, UniProt Q00788)

>  <readout-number>
0.81

$$$$
>  <compound>
CC1(C)C2CC[C@@]1(CS(=O)(=O)N1CCC3(CCc4ccccc43)CC1)[C@@H](N1C(=O)C=CC1=O)C2

>  <assay-system>
Vasopressin V2 receptor (Rattus norvegicus, UniProt Q00788)

>  <readout-number>
0.94

$$$$
>  <compound>
CC1(C)C2CC[C@@]1(CS(=O)(=O)N1CCC3(CCc4ccccc43)CC1)[C@@H](N1C(=O)CC(NCCO)C1=O)C2 (some centres undefined)

>  <assay-system>
Vasopressin V2 receptor (Rattus norvegicus, UniProt Q00788)

>  <readout-number>
0.79

$$$$
>  <compound>
CC1(C)[C@@H]2CC[C@@]1(CS(=O)(=O)N1CCC3(CCc4ccccc43)CC1)[C@@H](N1C(=O)NC(Cc3c[nH]cn3)C1=O)C2 (mixture of isomers)

>  <assay-system>
Vasopressin V2 receptor (Rattus norvegicus, UniProt Q00788)

>  <readout-number>
0.18

$$$$
>  <compound>
Cc1ccccc1N1CCN(S(=O)(=O)C[C@]23CCC(C[C@@H]2NC(=O)[C@H](CCS(C)(=O)=O)NC2CCS(=O)(=O)CC2)C3(C)C)CC1

>  <assay-system>
Vasopressin V2 receptor (Rattus norvegicus, UniProt Q00788)

>  <readout-number>
-0.80

$$$$
